Data credit: patent US10646494B2

Test system: HCV replicon 2B
assay text: Cell-based HCV replicon assay (Replicon Assay A), replicon 2B
Parameters: species or system Hepatitis C virus (HCV)
condition parameters: Hepatitis C virus, 72 h, read-out: Replicon EC50 (nM) 2B, replicon 2B, replicon RNA by real time PCR, cells harvested on day 3
Consider the following compounds and their measured EC50 readings.
Please reply with the bare figure in nM and do not write the unit itself.

// known answers, use as guide
compound	units symbol	EC50
COC(=O)N[C@H](C(=O)N1CCC[C@H]1c1ncc(-c2cc(F)c3c(c2)OC(c2nc(C(C)C)ns2)n2c-3cc3cc(-c4cnc([C@@H]5CCCN5C(=O)[C@@H](NC(=O)OC)C(C)C)[nH]4)ccc32)[nH]1)C(C)C (single isomer, unassigned) [Compound 31]	nM	1.64
COC(=O)N[C@H](C(=O)N1CCC[C@H]1c1ncc(-c2cc(F)c3c(c2)OC(c2cc(C(C)C)no2)n2c-3cc3cc(-c4cnc([C@@H]5CCCN5C(=O)[C@@H](NC(=O)OC)C(C)C)[nH]4)ccc32)[nH]1)C(C)C (mixture of isomers) [Compound 6]	nM	0.36
COC(=O)N[C@H](C(=O)N1CCC[C@H]1c1ncc(-c2cc(F)c3c(c2)OC(c2nc4ccccc4n2C)n2c-3cc3cc(-c4cnc([C@@H]5CCCN5C(=O)[C@@H](NC(=O)OC)C(C)C)[nH]4)ccc32)[nH]1)C(C)C (mixture of isomers) [Compound 11]	nM	8.23
COC(=O)N[C@H](C(=O)N1CCC[C@H]1c1ncc(-c2ccc3c(c2)OC(c2ccc(C)o2)n2c-3cc3cc(-c4cnc([C@@H]5C[C@@H](F)CN5C(=O)[C@@H](NC(=O)OC)C(C)C)[nH]4)ccc32)[nH]1)C(C)C (some centres unmarked) [Compound 43]	nM	0.06

Enquiry: Please look at this compound and report its EC50: COC(=O)N[C@H](C(=O)N1CCC[C@H]1c1ncc(-c2cc(F)c3c(c2)OC(c2cc4ccccn4n2)n2c-3cc3cc(-c4cnc([C@@H]5CCCN5C(=O)[C@@H](NC(=O)OC)C(C)C)[nH]4)ccc32)[nH]1)C(C)C (mixture of isomers) [Compound 12]
Return: 33.3

Enquiry: Please look at this compound and report its EC50: CCc1cc(C2Oc3cc(-c4cnc([C@@H]5CCCN5C(=O)[C@@H](NC(=O)OC)C(C)C)[nH]4)cc(F)c3-c3cc4cc(-c5cnc([C@@H]6CCCN6C(=O)[C@@H](NC(=O)OC)C(C)C)[nH]5)ccc4n32)on1 (mixture of isomers) [Compound 5]
Return: 4.17

Enquiry: Please look at this compound and report its EC50: COC(=O)N[C@H](C(=O)N1CCC[C@H]1c1ncc(-c2ccc3c(c2)OC(c2ccc(C)o2)n2c-3cc3cc(-c4cnc([C@@H]5CCCN5C(=O)[C@@H](NC(=O)OC)C(C)C)[nH]4)ccc32)[nH]1)C(C)C (some centres unmarked) [Compound 42]
Return: 6.16

Enquiry: Please look at this compound and report its EC50: COC(=O)N[C@H](C(=O)N1CCC[C@H]1c1ncc(-c2cc(F)c3c(c2)OC(c2csnn2)n2c-3cc3cc(-c4cnc([C@@H]5CCCN5C(=O)[C@@H](NC(=O)OC)C(C)C)[nH]4)ccc32)[nH]1)C(C)C (mixture of isomers) [Compound 37]
Return: 1.32

Enquiry: Please look at this compound and report its EC50: COC(=O)N[C@H](C(=O)N1CCC[C@@H]1c1ncc(-c2ccc3c(c2)cc2n3C(c3nnc(C)s3)Oc3cc(-c4cnc([C@H]5CCCN5C(=O)[C@H](NC(=O)OC)C(C)C)[nH]4)cc(F)c3-2)[nH]1)C(C)C (single isomer, unassigned) [Compound 15]
Return: 3.06

Enquiry: Please look at this compound and report its EC50: COC(=O)N[C@H](C(=O)N1CCC[C@H]1c1ncc(-c2cc(F)c3c(c2)OC(c2coc(C4CC4)n2)n2c-3cc3cc(-c4cnc([C@@H]5CCCN5C(=O)[C@@H](NC(=O)OC)C(C)C)[nH]4)ccc32)[nH]1)C(C)C (single isomer, unassigned) [Compound 36]
Return: 0.11

Enquiry: Please look at this compound and report its EC50: COC(=O)N[C@H](C(=O)N1CCC[C@@H]1c1ncc(-c2ccc3c(c2)cc2n3C(c3cnco3)Oc3cc(-c4cnc([C@H]5CCCN5C(=O)[C@H](NC(=O)OC)C(C)C)[nH]4)cc(F)c3-2)[nH]1)C(C)C (single isomer, unassigned) [Compound 17]
Return: 3.96
